- Test system: RGP-specific TCL
- ASSAY_METHOD_TEXT: TCL proliferation assay (3H-thymidine incorporation, stimulation index)
- Format: cell-based, human
- MEASUREMENT_CONDITIONS: Subject 11 TCL, Lol p 1 series (Table 3); peptides 10 μg/ml; RGP and Lol p 1 maximal response
READOUT_NAME: Proliferative response, stimulation index
Numbers only.

// solved cases for Proliferative response, stimulation index follow
Q: Query for RGP-specific TCL: what Proliferative response, stimulation index does the record show for IAPYHFDLSGHAFGSMAKKG (Lolium perenne) [Lol p 1 peptide 100-119] ?
Result: 7.9

Q: Continue with Lol p 1 peptide 217-236: synthetic 20-mer, amino acids 217-236 of Lol p 1A (SEQ ID NO:1) (EGGTKSEVEDVIPEGWKADT; Lolium perenne)
Result: 4.4

Q: Continue with FEIKCTKPESCSGEAVTVTI (Lolium perenne) [Lol p 1 peptide 73-92]
Result: 2.6

Q: Continue with KPTGAGPKDNGGACGYKDVD (Lolium perenne) [Lol p 1 peptide 28-47]
Result: 3.5

Q: Continue with Lol p 1 peptide 221-240: synthetic 20-mer, amino acids 221-240 of Lol p 1A (SEQ ID NO:1) (KSEVEDVIPEGWKADTSYSA; Lolium perenne)
Result: 3.3

Quick one: give me Proliferative response, stimulation index for each item below, same order please.
1. KGKDKWIELKESWGAVWRID (Lolium perenne) [Lol p 1 peptide 181-200]
2. Lol p 1 peptide 82-101: synthetic 20-mer, amino acids 82-101 of Lol p 1A (SEQ ID NO:1) (SCSGEAVTVTITDDNEEPIA; Lolium perenne)
3. KESWGAVWRIDTPDKLTGPF (Lolium perenne) [Lol p 1 peptide 190-209]

Result:
[7.3, 3.6, 3.3]

Reference for the values: patent US20060084789A1
